B1: TPR t1 (parent)
chain: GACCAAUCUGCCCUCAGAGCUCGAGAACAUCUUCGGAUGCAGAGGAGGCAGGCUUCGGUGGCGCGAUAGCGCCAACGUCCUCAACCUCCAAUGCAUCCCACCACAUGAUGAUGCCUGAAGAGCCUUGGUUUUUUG

Variants of: B1
Test: polymerase ribozyme fitness, log enrichment relative to wild type (log ratio); higher = more active; in vitro selection for triplet polymerase activity
Output condition met for polymerase ribozyme fitness (log ratio) not less than -1; output condition not met otherwise.

> print(dat)
          mutation.code        class.label
1            G63U G128U  condition not met
2  A26U A41C A46U C101U  condition not met
3        C49G G60C C86U      condition met
4  A5G A18G G117U U125A  condition not met
5       A26G C53U C101A  condition not met

Inquiry: Textbook exercise: given the entry C40U C73U A75C , state whether its polymerase ribozyme fitness (log ratio) is greater than or equal to -1.
Reply text: condition met

Inquiry: Textbook exercise: given the entry U78C G127U , state whether its polymerase ribozyme fitness (log ratio) is greater than or equal to -1.
Reply text: condition not met

Inquiry: Textbook exercise: given the entry U38G A43G , state whether its polymerase ribozyme fitness (log ratio) is greater than or equal to -1.
Reply text: condition not met

Inquiry: Textbook exercise: given the entry G52U C73A , state whether its polymerase ribozyme fitness (log ratio) is greater than or equal to -1.
Reply text: condition met

Inquiry: Textbook exercise: given the entry C3U U112C , state whether its polymerase ribozyme fitness (log ratio) is greater than or equal to -1.
Reply text: condition met

Data origin, for the record: the RNAGym collection of RNA variant scans (doi:10.1073/pnas.2313332121)
